Data credit: patent US20250032477A1

- Test system: NCI H292
- method_notes: Cytotoxicity in vitro in the presence and absence of legumain
- Type: cell-based
- condition_summary: Homo sapiens; NCI H292 cells; with legumain; read-out: NCI H292 IC50 w legumain
pIC50: −log10 of the molar value.
measure_name: pIC50

Incoming: Supply reported pIC50 belonging to this compound: CC[C@@]1(O)C(=O)OCc2c1cc1n(c2=O)Cc2c-1nc1cc(F)c(C)c3c1c2[C@@H](NC(=O)[C@H](CC(N)=O)NC(=O)[C@H](C)N(C)C(=O)[C@H](C)NC(=O)Cc1ccncc1)CC3
Outgoing: 7.00 to 7.96

====

- Tested on: NCI H292
- method_notes: Cytotoxicity in vitro in the presence and absence of legumain
- Format: cell-based
- condition_summary: Homo sapiens, NCI-H292, read-out: NCI H292 IC50 w/o
measure_name: IC50

Incoming: For the compound CC[C@@]1(O)C(=O)OCc2c1cc1n(c2=O)Cc2c-1nc1cc(F)c(C)c3c1c2[C@@H](NC(=O)[C@H](CC(N)=O)NC(=O)Cc1ccncc1)CC3 , give its reported IC50.
Outgoing: > 0.1 µM
